- System: nucleoside uptake (3H-Thymidine)
- Experimental Details: Rel.Uptake: nucleoside uptake, single concentration assay, cell line as indicated in each table
- Assay type: cell-based
- Conditions: 293T, nucleoside uptake, response relative to DMSO

- Molecule: "CCCC[C@H]1C(=O)N[C@@H](Cc2ccc3ccccc3c2)C(=O)N(C)[C@@H](COC(C)(C)C)C(=O)NCC(=O)N(C)CCC=CC(=O)OCC(C)(C)C(=O)C(=O)N2CCCC[C@H]2C(=O)O[C@H](CCc2ccc(OC)c(O)c2)c2cccc(c2)OCC(=O)N1C"
  Rel. Uptake, 293T: "high"
- Molecule: "COc1cc(OC)c(OC)cc1CC[C@H]1OC(=O)[C@@H]2CCCCN2C(=O)C(=O)C(C)(C)COC(=O)C=CCCN(C)C(=O)[C@@H](Cc2ccccc2)NC(=O)CN(C)C(=O)[C@@H](Cc2ccccc2)NC(=O)[C@H](Cc2ccc(O)cc2)N(C)C(=O)COc2cccc1c2"
  Rel. Uptake, 293T: "medium"
- Molecule: "COc1cc(CC[C@H]2OC(=O)[C@@H]3CCCCN3C(=O)C(=O)C(C)(C)COC(=O)C=CCCN(C)C(=O)[C@@H](Cc3ccccc3)NC(=O)CN(C)C(=O)[C@@H](Cc3ccccc3)NC(=O)[C@H](Cc3ccc(O)cc3)N(C)C(=O)COc3cccc2c3)cc(O)c1OC"
  Rel. Uptake, 293T: "medium"
- Molecule: "COc1ccc(CC[C@H]2OC(=O)[C@@H]3CCCCN3C(=O)C(=O)C(C)(C)COC(=O)C=CCCN(C)C(=O)[C@H](CC(C)C)N(C)C(=O)[C@H]3CCCN3C(=O)[C@H](Cc3ccc(C(=O)NCCO)cc3)NC(=O)[C@H](c3ccccc3)NC(=O)CCC(=O)Nc3cccc2c3)cc1OC"
  Rel. Uptake, 293T: "high"
- Molecule: "COc1cc(CC[C@H]2OC(=O)[C@@H]3CCCCN3C(=O)C(=O)C(C)(C)COC(=O)C=CCCN(C)C(=O)[C@@H](Cc3ccccc3)NC(=O)CN(C)C(=O)[C@@H](Cc3ccccc3)NC(=O)[C@H](Cc3ccc(O)cc3)N(C)C(=O)COc3cccc2c3)cc(OC)c1OC"
  Rel. Uptake, 293T: "medium"
- Molecule: "COc1cc(CC[C@H]2OC(=O)[C@@H]3CCCCN3C(=O)C(=O)C(C)(C)COC(=O)C=CCCN(C)C(=O)[C@@H](Cc3ccccc3)NC(=O)CN(C)C(=O)[C@@H](Cc3ccccc3)NC(=O)[C@H](Cc3ccc(O)cc3)N(C)C(=O)COc3cccc2c3)cc(F)c1OC"
  Rel. Uptake, 293T: "low"
- Molecule: "CCCCCCNC(=O)Cc1ccc(C[C@@H]2NC(=O)[C@H](c3ccccc3)NC(=O)CCC(=O)Nc3cccc(c3)[C@@H](CCc3ccc(OC)c(OC)c3)OC(=O)[C@@H]3CCCCN3C(=O)C(=O)C(C)(C)COC(=O)C=CCCN(C)C(=O)[C@H](CC(C)C)N(C)C(=O)[C@H]3CCCN3C2=O)cc1"
  Rel. Uptake, 293T: "Med"
- Molecule: "COc1ccc(CC[C@H]2OC(=O)[C@@H]3CNCCN3C(=O)C(=O)C(C)(C)COC(=O)C=CCCN(C)C(=O)[C@@H](Cc3ccccc3)NC(=O)CN(C)C(=O)[C@@H](Cc3ccccc3)NC(=O)[C@H](Cc3ccc(O)cc3)N(C)C(=O)COc3cccc2c3)cc1OC"
  Rel. Uptake, 293T: "low"
- Molecule: "COc1ccc(CC[C@H]2OC(=O)[C@@H]3CCCCN3C(=O)C(=O)C(C)(C)COC(=O)C=CCCN(C)C(=O)[C@@H](Cc3ccccc3)NC(=O)CN(C)C(=O)[C@@H](Cc3ccccc3)NC(=O)[C@H](Cc3ccc(O)cc3)N(C)C(=O)COc3cncc2c3)cc1OC"
  Rel. Uptake, 293T: "low"
- Molecule: "COc1ccc(CC[C@H]2OC(=O)[C@@H]3CCCCN3C(=O)C(=O)C(C)(C)COC(=O)C=CCCN(C)NC(c3ccccc3)C(=O)N(C)[C@@H](Cc3ccccc3)C(=O)N3CCC[C@@H]3C(=O)N(C)[C@@H](CC(C)C)C(=O)C(=O)CCOc3cccc2c3)cc1OC (stereo partly drawn)"
  Rel. Uptake, 293T: "low"
- Molecule: "COc1ccc(CC[C@H]2OC(=O)[C@@H]3CCCCN3C(=O)C(=O)C(C)(C)COC(=O)C=CCCN(C)C(=O)[C@H](CC(C)C)N(C)C(=O)[C@H]3CCCN3C(=O)[C@H](Cc3ccc(O)cc3)NC(=O)C(c3ccccc3)NC(=O)CCC(=O)Nc3cccc2c3)cc1OC (stereo partly drawn)"
  Rel. Uptake, 293T: "high"

---

- Test system: nucleoside uptake (3H-Thymidine)
- Experimental Details: Rel.Uptake: nucleoside uptake, single concentration assay, cell line as indicated in each table
- Type: cell-based
- Conditions: 293T, nucleoside uptake, response relative to DMSO

- Molecule: "COc1ccc(CC[C@H]2NC(=O)[C@@H]3CCCCN3C(=O)C(=O)C(C)(C)COC(=O)C=CCCN(C)C(=O)[C@H](CC(C)C)N(C)C(=O)[C@H]3CCCN3C(=O)[C@H](Cc3ccccc3)N(C)C(=O)C(c3ccccc3)NC(=O)CCC(=O)Nc3cccc2c3)cc1OC (some centres unmarked) [Compound 1557]"
  Rel. Uptake, 293T: "high"
- Molecule: "COc1ccc(CC[C@H]2OC(=O)[C@@H]3CN(C)CCN3C(=O)C(=O)C(C)(C)COC(=O)C=CCCN(C)C(=O)[C@@H](Cc3ccccc3)NC(=O)CN(C)C(=O)[C@@H](Cc3ccccc3)NC(=O)[C@H](Cc3ccc(O)cc3)N(C)C(=O)COc3cccc2c3)cc1OC [Compound 1574]"
  Rel. Uptake, 293T: "low"
- Molecule: "COc1cc(F)c(CC[C@H]2OC(=O)[C@@H]3CCCCN3C(=O)C(=O)C(C)(C)COC(=O)C=CCCN(C)C(=O)[C@@H](Cc3ccccc3)NC(=O)CN(C)C(=O)[C@@H](Cc3ccccc3)NC(=O)[C@H](Cc3ccc(O)cc3)N(C)C(=O)COc3cccc2c3)cc1OC [Compound 1570]"
  Rel. Uptake, 293T: "medium"
- Molecule: "COc1cc(CC[C@H]2OC(=O)[C@@H]3CCCCN3C(=O)C(=O)C(C)(C)COC(=O)C=CCCN(C)C(=O)[C@@H](Cc3ccccc3)NC(=O)CN(C)C(=O)[C@@H](Cc3ccccc3)NC(=O)[C@H](Cc3ccc(O)cc3)N(C)C(=O)COc3cccc2c3)c(OC)c(OC)c1 [Compound 1582]"
  Rel. Uptake, 293T: "low"
- Molecule: "COc1ccc(OC)c(OC)c1CC[C@H]1OC(=O)[C@@H]2CCCCN2C(=O)C(=O)C(C)(C)COC(=O)C=CCCN(C)C(=O)[C@@H](Cc2ccccc2)NC(=O)CN(C)C(=O)[C@@H](Cc2ccccc2)NC(=O)[C@H](Cc2ccc(O)cc2)N(C)C(=O)COc2cccc1c2 [Compound 1583]"
  Rel. Uptake, 293T: "low"
- Molecule: "COc1ccc(CC[C@H]2OC(=O)[C@@H]3CCCCN3C(=O)C(=O)C(C)(C)COC(=O)C=CCCN(C)C(=O)[C@H](CC(C)C)N(C)C(=O)[C@H]3CCCN3C(=O)[C@H](Cc3ccc(C(=O)Nc4cccnc4)cc3)NC(=O)[C@H](c3ccccc3)NC(=O)CCC(=O)Nc3cccc2c3)cc1OC [Compound 1562]"
  Rel. Uptake, 293T: "low"
- Molecule: "COc1ccc(CC[C@H]2OC(=O)[C@@H]3CCCCN3C(=O)C(=O)C(C)(C)COC(=O)C=CCCN(C)C(=O)[C@@H](Cc3ccccc3)NC(=O)CN(C)C(=O)[C@@H](Cc3ccccc3)NC(=O)[C@H](Cc3ccc(O)cc3)N(C)C(=O)COc3cccc2c3)c(F)c1OC [Compound 1571]"
  Rel. Uptake, 293T: "low"
- Molecule: "COc1ccc(CC[C@H]2OC(=O)[C@@H]3CCCCN3C(=O)C(=O)C(C)(C)COC(=O)C=CCCN(C)C(=O)[C@@H](Cc3ccccc3)NC(=O)CN(C)C(=O)[C@@H](Cc3ccccc3)NC(=O)[C@H](Cc3ccc(O)cc3)N(C)C(=O)COc3cc2ccc3F)cc1OC [Compound 1578]"
  Rel. Uptake, 293T: "low"
- Molecule: "COc1ccc(CC[C@H]2OC(=O)[C@@H]3CCCCN3C(=O)C(=O)C(C)(C)COC(=O)C=CCCN(C)C(=O)[C@@H](c3ccccc3)NC(=O)[C@H](Cc3ccc(OP(C)(C)=O)cc3)NC(=O)[C@H]3CCCN3C(=O)[C@H](CC(C)C)N(C)C(=O)COc3cccc2c3)cc1OC [Compound 1520]"
  Rel. Uptake, 293T: "low"
- Molecule: "COc1ccc(CC[C@H]2OC(=O)[C@@H]3CCCCN3C(=O)C(=O)C(C)(C)COC(=O)C=CCCN(C)C(=O)[C@@H](Cc3ccccc3)NC(=O)CN(C)C(=O)[C@@H](Cc3ccccc3)NC(=O)[C@H](Cc3ccc(O)cc3)N(C)C(=O)COc3cc(F)cc2c3)cc1OC [Compound 1576]"
  Rel. Uptake, 293T: "medium"
- Molecule: "CCCC[C@H]1C(=O)N[C@@H](Cc2ccc3ccccc3c2)C(=O)N(C)[C@@H](COC(C)(C)C)C(=O)NCC(=O)N(C)CCC=CC(=O)OCC(C)(C)C(=O)C(=O)N2CCCC[C@H]2C(=O)O[C@H](CCc2ccc(OC)c(OC)c2)c2cncc(c2)OCC(=O)N1C [Compound 1565]"
  Rel. Uptake, 293T: "low"
- Molecule: "COc1ccc(CC[C@H]2OC(=O)[C@@H]3CCCCN3C(=O)C(=O)C(C)(C)COC(=O)C=CCCN(C)C(=O)[C@@H](Cc3ccccc3)NC(=O)CN(C)C(=O)[C@@H](Cc3ccccc3)NC(=O)[C@H](Cc3ccc(O)cc3)N(C)C(=O)COc3ccc(F)c2c3)cc1OC [Compound 1575]"
  Rel. Uptake, 293T: "low"
